This collection of values is drawn from the RNAGym collection of RNA variant scans (doi:10.1126/science.aae0568).

B1: tRNA (parent)
chain: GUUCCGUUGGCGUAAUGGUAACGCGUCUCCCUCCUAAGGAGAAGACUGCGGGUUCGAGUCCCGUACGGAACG

- Variants of: B1
- methodSummary: yeast fitness relative to wild type (ratio to wild type); higher = fitter; tRNA-Arg(CCU), competitive growth, 37 C, YPD
This sample holds only a part of the variants without activity.
Readings of yeast fitness for the listed variants
Number only, no unit.

A15G C31G G44C C46G | 0.647
C11U C29A A36U G50C C55G C61G | 0.592
A14C A45G | 0.611

# yeast fitness (variant: C4A C33G U47A ) is 0.625

# yeast fitness (variant: G56U A69C ) is 0.717

# yeast fitness (variant: A20C A21G A57G ) is 0.744

# yeast fitness (variant: G6C A37U C49U A69U ) is 0.585

# yeast fitness (variant: A21C C30A A42C G48C C49U U54C ) is 0.598

# yeast fitness (variant: U19G G39A A40G ) is 0.56
